- System: L1210 leukaemia cells
- assay overview: Apoptosis bioassay: L1210 cell viability by Trypan blue exclusion
- Format: cell-based, mouse
- measurement setup: apoptosis assay
measurement name: apoptosis induction / biological activity

HAMLET (protein, UniProt P00709 20-142, looked up, complex with oleic acid) Alpha-lactalbumin: KQFTKCELSQLLKDIDGYGGIALPELICTMFHTSGYDTQAIVENNESTEYGLFQISNKLWCKSSQVPQSRNICDISCDKFLDDDITDDIMCAKKILDIKGIDYWLAHKALCTEKLEQWLCEKL = cause apoptosis
D87A: bovine α-lactalbumin with aspartic acid at position 87 substituted by alanine (protein, UniProt P00711 20-142, looked up, variant D87A) Alpha-lactalbumin: EQLTKCEVFRELKDLKGYGGVSLPEWVCTTFHTSGYDTQAIVQNNDSTEYGLFQINNKIWCKDDQNPHSSNICNISCDKFLDDDLTADIMCVKKILDKVGINYWLAHKALCSEKLDQWLCEKL = biologically inactive
C18:1:11cis complex: complex of apo-α-lactalbumin with C18:1:11cis fatty acid eluted after 1M NaCl (protein, UniProt P00709 20-142, looked up, complex with C18:1:11cis fatty acid, complex of apo-α-lactalbumin with C18:1:11cis fatty acid eluted after 1M NaCl) Alpha-lactalbumin: KQFTKCELSQLLKDIDGYGGIALPELICTMFHTSGYDTQAIVENNESTEYGLFQISNKLWCKSSQVPQSRNICDISCDKFLDDDITDDIMCAKKILDIKGIDYWLAHKALCTEKLEQWLCEKL = cause apoptosis
D87N: bovine α-lactalbumin with aspartic acid at position 87 substituted by asparagine (protein, UniProt P00711 20-142, looked up, variant D87N) Alpha-lactalbumin: EQLTKCEVFRELKDLKGYGGVSLPEWVCTTFHTSGYDTQAIVQNNDSTEYGLFQINNKIWCKDDQNPHSSNICNISCDKFLDDDLTNDIMCVKKILDKVGINYWLAHKALCSEKLDQWLCEKL = biologically inactive
